- Test Description: chemical genetic growth profiling, strain panel (AID 1159580);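 note: tested at 20 µM; growth read once vehicle control cultures reached saturation at 30 °C; 1 = growth at the plate median or of vehicle wells; lower values mean less growth of the strain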
- Assay Conditions: S. cerevisiae deletion strains, growth OD, locus YLL026W
The campaign covered roughly 5,500 compounds. About 2,000 (36%) were called active. Not shown: some 18% with an inconclusive outcome. Cut-off read from the data, not from the text of the source: active = normalized growth mostly below about 0.91 (no sharp cut-off); inconclusive = no clear call, values can overlap the other calls; inactive = mostly above about 0.92. Some of the results follow.
Possible outcomes: active, inactive

Molecule: CC1(C)OC(=O)NC1=O
Assigned Label: inactive

Molecule: CCN(CC)CCCC(C)Nc1ccnc2cc(Cl)ccc12 (stereo unspecified)
Assigned Label: inactive

Molecule: Oc1cc(Cl)ccc1Oc1ccc(Cl)cc1Cl
Assigned Label: active

Molecule: CCN(CC)CCCC(C)Nc1c2ccc(Cl)cc2nc2ccc(OC)cc12 (stereo unspecified)
Assigned Label: inactive

Molecule: CC1=C(CC(=O)O)c2cc(F)ccc2/C1=C\c1ccc(S(C)=O)cc1 (stereo unspecified)
Assigned Label: inactive

Molecule: COc1ccc2c3c1O[C@H]1C[C@@H](O)C=C[C@@]31CCN(C)C2
Assigned Label: inactive

Molecule: CCCCCCNC(=O)n1cc(F)c(=O)[nH]c1=O
Assigned Label: inactive

Molecule: CC1=C(/C=C/C(C)=C/C=C/C(C)=C/C=C/C=C(C)/C=C/C=C(C)/C=C/C2=C(C)C(=O)C(O)CC2(C)C)C(C)(C)CC(O)C1=O (stereo unspecified)
Assigned Label: inactive

Molecule: CCN(CCO)CCCC(C)Nc1ccnc2cc(Cl)ccc12 (stereo unspecified)
Assigned Label: inactive

Molecule: NCC1CCC(C(=O)O)CC1 (stereo unspecified)
Assigned Label: inactive

Molecule: CCOC(=O)C(=O)C1(C(=O)OCC)Oc2cc(OC)cc(OC)c2C(=O)C1c1ccccc1 (stereo unspecified)
Assigned Label: inactive

###

- Test Description: chemical genetic growth profiling, strain panel (AID 1159580);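 note: tested at 20 µM; growth read once vehicle control cultures reached saturation at 30 °C; 1 = growth at the plate median or of vehicle wells; lower values mean less growth of the strain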
- Assay Conditions: S. cerevisiae deletion strains, growth OD, locus YMR129W, hits give low values
In all, about 5,500 compounds went through this assay and about 2,000 (36%) were called active. Roughly 18% stayed inconclusive and do not appear here. This is one part of the list.
normalized growth: recorded values
Measured Quantity: normalized growth

Molecule: OCCN1C[C@@H](O)[C@@H](O)C(O)C1CO (some centres not stated)
Measured Quantity: normalized growth
Result Number: 0.997

Molecule: C=C(C)C1CNC(C(=O)O)C1CC(=O)O (configuration not stated)
Measured Quantity: normalized growth
Result Number: 1

Molecule: CC1=C(/C=C/C(C)=C/C=C/C(C)=C/C=C/C=C(C)/C=C/C=C(C)/C=C/C(=O)[C@]2(C)C[C@@H](O)CC2(C)C)C(C)(C)C[C@H](O)C1
Measured Quantity: normalized growth
Result Number: 1.02

Molecule: CCN(CC)CCNC(=O)c1cc(Br)c(N)cc1OC
Measured Quantity: normalized growth
Result Number: 0.986

Molecule: CCCCCCCCCCCCCCCC(=O)OC/C=C(C)/C=C/C=C(C)/C=C/C1=C(C)CCCC1(C)C
Measured Quantity: normalized growth
Result Number: 1.01

Molecule: CC(N)C(=O)OC(C)(C)Cc1ccc(Cl)cc1 (configuration not stated)
Measured Quantity: normalized growth
Result Number: 1.02

Molecule: CO[C@H]1[C@H](O)[C@H](O[C@H]2CC[C@]3(C)C4CC[C@]5(C)C(C6=CC(=O)OC6)CC[C@]5(O)C4CC[C@@H]3C2)O[C@@H](C)[C@@H]1O (some centres not stated)
Measured Quantity: normalized growth
Result Number: 1.01

The values you see were collected from PubChem BioAssay AID1159580.
